- Tested on: HCoV-229E
- Parameters: species or system Huh-7; HTS, protection from HCoV-229E induced cell death, luminescent cell viability (CellCounting-Lite 2.0), inhibition rate
- CONDITION_NOTES: 24 h, 10 µM; inhibitor
Among all 3,300 compounds or so, about 95 (3%) showed an effect of 50% or more. What follows is part of a selection rich in strong results, with near analogues and random picks from the rest.
TEST_READOUT: 229E Inhibition rate
One number for each entry.

- MOLECULE: "CO[C@H]1C[C@H](O[C@H]2CC[C@]3(C)[C@H]4CC[C@]5(C)[C@@H](C6=CC(=O)OC6)CC[C@]5(O)[C@@H]4CC[C@]3(O)C2)O[C@H](C)[C@H]1O[C@@H]1O[C@H](CO)[C@@H](O)[C@H](O)[C@H]1O"
  229E Inhibition rate: 25

// moving on: another record for 229E Inhibition rate
Looking for the measured 229E Inhibition rate of C[C@H]1O[C@@H](O[C@H]2CC[C@@]3(C)[C@H](CC[C@@H]4[C@@H]3C[C@@H](O)[C@]3(C)[C@@H](C5=CC(=O)OC5)CC[C@]43O)C2)C[C@H](O)[C@@H]1O[C@H]1C[C@H](O)[C@H](O[C@H]2C[C@H](O)[C@H](O[C@@H]3O[C@H](CO)[C@@H](O)[C@H](O)[C@H]3O)[C@@H](C)O2)[C@@H](C)O1 [Deslanoside] , can you help?
55.1
